Species on record: Rattus norvegicus
Assay: Ratio of binding affinities for rat Opioid receptors mu 1 and delta 1
Square brackets hold non-standard residues; d marks the D form. Peptide text beside a SMILES is read from it. ξ: configuration not given here. Dmt = Cc1cc(O)cc(C)c1C[C@H](N)C(=O)O; Tic = O=C(O)[C@@H]1Cc2ccccc2CN1; ξTic = O=C(O)C1Cc2ccccc2CN1
For each of the compounds below, state its Ratio.
Give bare numbers.

Reference set (3 entries):
[[record]]
compound = "Cc1cc(O)cc(C)c1C[C@H](N)C(=O)N1Cc2ccccc2C[C@H]1C(=O)NC(CCCCN)C(N)=O (single isomer, unassigned)"
endpoint_name = "Ratio"
test_result = 24

[[record]]
compound = "Cc1cc(O)cc(C)c1C[C@H](N)C(=O)N1Cc2ccccc2C[C@H]1C(=O)NC(C)C(N)=O (stereo in doubt)"
endpoint_name = "Ratio"
test_result = 158

[[record]]
compound = "Cc1cc(O)cc(C)c1C[C@H](N)C(=O)N1Cc2ccccc2C[C@H]1C(=O)N[C@H](CCC(N)=O)C(=O)O"
endpoint_name = "Ratio"
test_result = 1.25


Fill in Ratio for each of the 3 compounds listed.
1. Cc1cc(O)cc(C)c1C[C@H](N)C(=O)N1Cc2ccccc2C[C@H]1C(=O)N[C@H](CC(=O)O)C(N)=O
2. Cc1cc(O)cc(C)c1C[C@H](N)C(=O)N1Cc2ccccc2CC1C(=O)N[C@@H](Cc1c[nH]c2ccccc12)C(=O)O (stereo not given in full) (H-[Dmt]-[ξTic]-Trp-OH)
3. Cc1cc(O)cc(C)c1C[C@H](N)C(=O)N1Cc2ccccc2C[C@H]1C(=O)N[C@@H](CC(=O)O)C(N)=O

[A]
834
462
8.88

Fill in Ratio for each of the 2 compounds listed.
1. Cc1cc(O)cc(C)c1C[C@H](N)C(=O)N1Cc2ccccc2C[C@H]1C(=O)N[C@@H](CCC(=O)O)C(N)=O
2. Cc1cc(O)cc(C)c1C[C@H](N)C(=O)N1Cc2ccccc2C[C@H]1C(=O)N[C@H](C)C(=O)O

[A]
22.6
20.4

Fill in Ratio for each of the 7 compounds listed.
1. Cc1cc(O)cc(C)c1C[C@H](N)C(=O)N1Cc2ccccc2C[C@H]1C(=O)N[C@H](CC(N)=O)C(=O)O
2. Cc1cc(O)cc(C)c1C[C@H](N)C(=O)N1Cc2ccccc2C[C@H]1C(=O)NC(CCCN=C(N)N)C(N)=O (single isomer, unassigned)
3. Cc1cc(O)cc(C)c1C[C@H](N)C(=O)N1Cc2ccccc2C[C@H]1C(=O)N[C@@H](CC(N)=O)C(=O)O
4. Cc1cc(O)cc(C)c1C[C@H](N)C(=O)N1Cc2ccccc2C[C@H]1C(=O)NC(CO)C(=O)O (single isomer, unassigned)
5. CC(=O)NCCCC[C@@H](NC(=O)[C@@H]1Cc2ccccc2CN1C(=O)[C@@H](N)Cc1c(C)cc(O)cc1C)C(=O)O
6. Cc1cc(O)cc(C)c1C[C@H](N)C(=O)N1Cc2ccccc2C[C@H]1C(=O)N[C@H](CCC(=O)O)C(N)=O
7. Cc1cc(O)cc(C)c1C[C@H](N)C(=O)N1Cc2ccccc2C[C@H]1C(=O)NCC(N)=O (H-[Dmt]-[Tic]-Gly-NH2)

[A]
1: 5.4; 2: 21; 3: 73; 4: 10.5; 5: 1.05; 6: 17.4; 7: 559

====

Test: Binding affinity for rat Opioid receptor delta 1
Square brackets hold non-standard residues; d marks the D form. Peptide text beside a SMILES is read from it. Dmt = Cc1cc(O)cc(C)c1C[C@H](N)C(=O)O; Tic = O=C(O)[C@@H]1Cc2ccccc2CN1
Binary call on Ki with cut-off 0.3 nM: strictly below means Fulfilled, and equality or higher means Not fulfilled.

Before answering, review these 8 worked examples.
[[record]]
molecule = "Cc1cc(O)cc(C)c1C[C@H](N)C(=O)N1Cc2ccccc2C[C@H]1C(=O)NC(CO)C(=O)O (single isomer, unassigned)"
label_class = "Fulfilled"

[[record]]
molecule = "Cc1cc(O)cc(C)c1C[C@H](N)C(=O)N1Cc2ccccc2C[C@H]1C(=O)NC(CCCCN)C(N)=O (single isomer, unassigned)"
label_class = "Not fulfilled"

[[record]]
molecule = "Cc1cc(O)cc(C)c1C[C@H](N)C(=O)N1Cc2ccccc2C[C@H]1C(=O)N[C@@H](CCC(N)=O)C(=O)O"
label_class = "Not fulfilled"

[[record]]
molecule = "Cc1cc(O)cc(C)c1C[C@H](N)C(=O)N1Cc2ccccc2C[C@H]1C(=O)N[C@@H](CCC(=O)O)C(N)=O"
label_class = "Fulfilled"

[[record]]
molecule = "CC(=O)NCCCC[C@@H](NC(=O)[C@@H]1Cc2ccccc2CN1C(=O)[C@@H](N)Cc1c(C)cc(O)cc1C)C(=O)O"
label_class = "Fulfilled"

[[record]]
molecule = "Cc1cc(O)cc(C)c1C[C@H](N)C(=O)N1Cc2ccccc2C[C@H]1C(=O)N[C@H](CCC(=O)O)C(N)=O"
label_class = "Fulfilled"

[[record]]
molecule = "Cc1cc(O)cc(C)c1C[C@H](N)C(=O)N1Cc2ccccc2C[C@H]1C(=O)N[C@H](CCC(N)=O)C(=O)O"
label_class = "Not fulfilled"

[[record]]
molecule = "Cc1cc(O)cc(C)c1C[C@H](N)C(=O)N1Cc2ccccc2C[C@H]1C(=O)N[C@@H](CC(N)=O)C(=O)O"
label_class = "Not fulfilled"


[Q] Ki strictly < 0.3 nM for this molecule? Cc1cc(O)cc(C)c1C[C@H](N)C(=O)N1Cc2ccccc2C[C@H]1C(=O)N[C@@H](Cc1c[nH]c2ccccc12)C(=O)O (H-[Dmt]-[Tic]-Trp-OH)
[A] Fulfilled

[Q] Ki strictly < 0.3 nM for this molecule? CC(=O)NCCCC[C@H](NC(=O)[C@@H]1Cc2ccccc2CN1C(=O)[C@@H](N)Cc1c(C)cc(O)cc1C)C(=O)O
[A] Fulfilled

[Q] Ki strictly < 0.3 nM for this molecule? Cc1cc(O)cc(C)c1C[C@H](N)C(=O)N1Cc2ccccc2C[C@H]1C(=O)N[C@H](CC(=O)O)C(N)=O
[A] Not fulfilled

[Q] Ki strictly < 0.3 nM for this molecule? Cc1cc(O)cc(C)c1C[C@H](N)C(=O)N1Cc2ccccc2C[C@H]1C(=O)N[C@H](CC(N)=O)C(=O)O
[A] Not fulfilled

[Q] Ki strictly < 0.3 nM for this molecule? Cc1cc(O)cc(C)c1C[C@H](N)C(=O)N1Cc2ccccc2C[C@H]1C(=O)NC(Cc1c[nH]cn1)C(=O)O (single isomer, unassigned)
[A] Fulfilled

[Q] Ki strictly < 0.3 nM for this molecule? Cc1cc(O)cc(C)c1C[C@H](N)C(=O)N1Cc2ccccc2C[C@H]1C(=O)NC(CCCN=C(N)N)C(N)=O (single isomer, unassigned)
[A] Not fulfilled

====

Species on record: Rattus norvegicus
Assay: Ratio of binding affinities for rat Opioid receptors mu 1 and delta 1
endpoint-name: Ratio

Reference set (3 entries):
[[record]]
molecule = "CC(=O)NCCCC[C@H](NC(=O)[C@@H]1Cc2ccccc2CN1C(=O)[C@@H](N)Cc1c(C)cc(O)cc1C)C(=O)O"
endpoint_name = "Ratio"
test_result = 22.4

[[record]]
molecule = "Cc1cc(O)cc(C)c1C[C@H](N)C(=O)N1Cc2ccccc2C[C@H]1C(=O)NC(CO)C(N)=O (single isomer, unassigned)"
endpoint_name = "Ratio"
test_result = 1.12

[[record]]
molecule = "Cc1cc(O)cc(C)c1C[C@H](N)C(=O)N1Cc2ccccc2C[C@H]1C(=O)N[C@@H](CCC(N)=O)C(=O)O"
endpoint_name = "Ratio"
test_result = 1.43


Let's switch to this molecule now.
Reported Ratio for Cc1cc(O)cc(C)c1C[C@H](N)C(=O)N1Cc2ccccc2C[C@H]1C(=O)NC(Cc1c[nH]cn1)C(=O)O (single isomer, unassigned) was 1.4

====

Test: Binding affinity for rat Opioid receptor mu 1
Square brackets hold non-standard residues; d marks the D form. Peptide text beside a SMILES is read from it. Dmt = Cc1cc(O)cc(C)c1C[C@H](N)C(=O)O; Tic = O=C(O)[C@@H]1Cc2ccccc2CN1
endpoint-name: Ki (nM)
Answers are plain numbers, in nM.

Reference set (5 entries):
[[record]]
molecule = "CC(=O)NCCCC[C@H](NC(=O)[C@@H]1Cc2ccccc2CN1C(=O)[C@@H](N)Cc1c(C)cc(O)cc1C)C(=O)O"
endpoint_name = "Ki"
test_result = 1050

[[record]]
molecule = "Cc1cc(O)cc(C)c1C[C@H](N)C(=O)N1Cc2ccccc2C[C@H]1C(=O)NCC(N)=O (H-[Dmt]-[Tic]-Gly-NH2)"
endpoint_name = "Ki"
test_result = 140

[[record]]
molecule = "Cc1cc(O)cc(C)c1C[C@H](N)C(=O)N1Cc2ccccc2C[C@H]1C(=O)N[C@@H](CC(N)=O)C(=O)O"
endpoint_name = "Ki"
test_result = 80.3

[[record]]
molecule = "Cc1cc(O)cc(C)c1C[C@H](N)C(=O)N1Cc2ccccc2C[C@H]1C(=O)N[C@H](CC(=O)O)C(N)=O"
endpoint_name = "Ki"
test_result = 367

[[record]]
molecule = "Cc1cc(O)cc(C)c1C[C@H](N)C(=O)N1Cc2ccccc2C[C@H]1C(=O)NC(CCCCN)C(N)=O (single isomer, unassigned)"
endpoint_name = "Ki"
test_result = 17


Fill in Ki for each of the 2 molecules listed.
1. Cc1cc(O)cc(C)c1C[C@H](N)C(=O)N1Cc2ccccc2C[C@H]1C(=O)NC(Cc1c[nH]cn1)C(=O)O (single isomer, unassigned)
2. Cc1cc(O)cc(C)c1C[C@H](N)C(=O)N1Cc2ccccc2C[C@H]1C(=O)N[C@@H](CC(=O)O)C(N)=O

[A]
1: 174; 2: 2560
